- Tested on: HCT-15 colon
- TEST: NCI tumour cell line growth inhibition, 48 h
Catalogue of TGI readings, one per entry.
METRIC NAME: TGI (µM)

compound="CN(CCC(=O)N1CC(CCl)c2ccc([N+](=O)[O-])cc21)CCC(=O)N1CC(CCl)c2ccc([N+](=O)[O-])cc21 (stereo unspecified)" unit_text=µM bound_type== value=25.9
compound=N#Cc1ccc(NC(=NCC(=O)O)Nc2cccc3ccccc23)cc1 unit_text=µM bound_type=> value=10
compound=CN(C)c1ccc(N)cc1 unit_text=µM bound_type== value=38.5
compound=CCOC(=O)/C(C#N)=C/Nc1c(C)n(C)n(-c2ccccc2)c1=O unit_text=µM bound_type=> value=100
compound=CCN(CC)c1sc(N(CC)CC)c2c1SSSSS2 unit_text=µM bound_type=> value=34.2
compound=O=C(CCl)Nc1ccc(Cl)cc1 unit_text=µM bound_type== value=6.33
compound="CCC[CH2][Sn]1([CH2]CCC)[O]C(=O)C(C(C)C)N=Cc2ccccc2[O]1 (stereo unspecified)" unit_text=µM bound_type== value=1.34
compound="COC(=O)C1C2OC(C)(C)OC2CN1S(=O)(=O)c1ccc(C)cc1 (stereo unspecified)" unit_text=µM bound_type=> value=100
compound=O=C1NC(=O)c2ccc([N+](=O)[O-])c3cccc1c23 unit_text=µM bound_type== value=22.4
compound=C=CC(C)(C)n1cc(C2=C3OC(=O)C(c4cn(C(C)(C)C=C)c5ccccc45)=C3OC2=O)c2ccccc21 unit_text=µM bound_type=> value=100
compound="CC12CCCC(O)C1CCC1=CC3(CCC12)SCCS3 (stereo unspecified)" unit_text=µM bound_type=> value=10

----------
- Tested on: NCI-H460 lung
Outcomes: active, inactive

compound="CC(=O)OC1CC(O)C23COC(O)C1(C)C2CC(O)C1(C)C3C(=O)C(O)C2(C)C(c3ccoc3)CC3OC321 (configuration not stated)" target_or_test_system="NCI-H460 lung" group=active
compound=O=C(Nc1ccc(Cl)cc1)c1cc(-c2ccc(F)cc2)c2sc(=O)[nH]c2n1 target_or_test_system="NCI-H460 lung" group=inactive
compound=CCOC(=O)c1c(CN2CCN(c3ccccc3)CC2)n(-c2ccccc2)c2cc(Br)c(O)cc12 target_or_test_system="NCI-H460 lung" group=inactive
compound=CCCCN=C(N)c1ccc(OCCSCCOc2ccc(C(N)=NCCCC)cc2)cc1 target_or_test_system="NCI-H460 lung" group=inactive
compound="CC1CN1CC(O)C(O)CN1CC1C (configuration not stated)" target_or_test_system="NCI-H460 lung" group=active
compound=CCS(=O)(=O)c1ccc(OC)c(Nc2ncc(-c3cccc(OC)c3)o2)c1 target_or_test_system="NCI-H460 lung" group=inactive
compound=COc1cc(OC)c(/C=C/C(=O)c2c(OC)cccc2OC)c(OC)c1 target_or_test_system="NCI-H460 lung" group=active
compound=CN(C)CCCn1c2c(c3ccccc3c1=O)C(=O)c1ccccc1-2 target_or_test_system="NCI-H460 lung" group=inactive
compound=CN(C)c1ccc(N)cc1 target_or_test_system="NCI-H460 lung" group=inactive
compound=CC(C)c1ccc(C(=O)Nc2sc3c(c2C(N)=O)CCC(=O)C3)cc1 target_or_test_system="NCI-H460 lung" group=inactive
compound=O=C(c1cccc(O)c1O)c1cn(Cc2ccc(F)cc2)c2cccc(O)c12 target_or_test_system="NCI-H460 lung" group=inactive
compound=COc1ccc(C(=O)c2cc(C)c(OC)c(C)c2)c(OC)c1N(C(=O)C(Cl)Cl)C(=O)C(Cl)Cl target_or_test_system="NCI-H460 lung" group=active
